biological target: recombinant human PAI-1 (Homo sapiens, UniProt P05121); test: Test Example 2: Human PAI-1 Inhibitory Activity (pH 7.4 HEPES buffer, 10 minutes incubation with two-chain tPA); format: biochemical; set-up: purchased Molecular Innovations, Inc; conditions: read-out: Inhibition Rate of PAI-1 Activity (%)
Sequence (P05121 24-402): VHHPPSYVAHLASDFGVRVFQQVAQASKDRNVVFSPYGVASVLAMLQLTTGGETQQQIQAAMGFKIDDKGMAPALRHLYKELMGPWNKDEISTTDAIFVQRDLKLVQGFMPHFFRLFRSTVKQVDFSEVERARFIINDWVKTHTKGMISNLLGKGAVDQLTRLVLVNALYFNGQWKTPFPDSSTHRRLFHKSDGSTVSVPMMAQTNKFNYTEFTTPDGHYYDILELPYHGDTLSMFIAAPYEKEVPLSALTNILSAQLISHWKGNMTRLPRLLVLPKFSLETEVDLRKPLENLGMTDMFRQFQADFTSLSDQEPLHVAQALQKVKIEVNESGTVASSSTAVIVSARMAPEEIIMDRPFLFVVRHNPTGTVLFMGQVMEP
reported endpoint: inhibition at 1 µM (%)
Give the number; % is assumed, so skip it.

Solved entries (count: 4):
>>> value_reported("CC(C)(C)c1ccc(Sc2cc(-c3ccc(OC(F)(F)F)cc3)ccc2CCC(=O)O)cc1")
95
>>> value_reported("CC(C)(C)c1ccc(Oc2cc(-c3ccc(OC(F)(F)F)cc3)ccc2OCC(=O)O)cc1")
56
>>> value_reported("Cc1cc(C)cc(Oc2cc(-c3ccc(C(C)(C)C)cc3)ccc2CCC(=O)O)c1")
77
>>> value_reported("CC(C)(C)c1ccc(-c2ccc(OCC(=O)O)c(Oc3cccc(C(C)(C)C)c3)c2)cc1")
87

Request: Which inhibition at 1 µM is reported with recombinant human PAI-1 (Homo sapiens, UniProt P05121) for this entry: CC(C)(C)c1ccc(COc2ccc(-c3ccc(OC(F)(F)F)cc3)cc2OCC(=O)O)cc1 ?
Response: 44

Request: Which inhibition at 1 µM is reported with recombinant human PAI-1 (Homo sapiens, UniProt P05121) for this entry: O=C(O)C(=O)N(CCCCc1ccccc1)c1cc(-c2ccc(OC(F)(F)F)cc2)ccc1OCCCCC(F)(F)F ?
Response: 48

Request: Which inhibition at 1 µM is reported with recombinant human PAI-1 (Homo sapiens, UniProt P05121) for this entry: CCCCC(Oc1ccc(-c2cccc(C)c2)cc1Oc1ccc(C(C)(C)C)cc1)C(=O)O (stereo not drawn) ?
Response: 86

Request: Which inhibition at 1 µM is reported with recombinant human PAI-1 (Homo sapiens, UniProt P05121) for this entry: O=C(O)/C=C/c1ccc(-c2ccc(OC(F)(F)F)cc2)cc1OCCCOCc1ccccc1 ?
Response: 26

Request: Which inhibition at 1 µM is reported with recombinant human PAI-1 (Homo sapiens, UniProt P05121) for this entry: CC(C)(C)[C@H]1CC[C@H](CN(C(=O)C(=O)O)c2ccc(-c3ccc(OC(F)(F)F)cc3)cc2)CC1 ?
Response: 84

Request: Which inhibition at 1 µM is reported with recombinant human PAI-1 (Homo sapiens, UniProt P05121) for this entry: CCCCOc1ccc(N(Cc2ccc(C(C)(C)C)cc2)C(=O)C(=O)O)cc1-c1ccc(OC(F)(F)F)cc1 ?
Response: 34
